- tested_on: T1, 9S-S2 PPR (synthetic construct)
- T1 chain: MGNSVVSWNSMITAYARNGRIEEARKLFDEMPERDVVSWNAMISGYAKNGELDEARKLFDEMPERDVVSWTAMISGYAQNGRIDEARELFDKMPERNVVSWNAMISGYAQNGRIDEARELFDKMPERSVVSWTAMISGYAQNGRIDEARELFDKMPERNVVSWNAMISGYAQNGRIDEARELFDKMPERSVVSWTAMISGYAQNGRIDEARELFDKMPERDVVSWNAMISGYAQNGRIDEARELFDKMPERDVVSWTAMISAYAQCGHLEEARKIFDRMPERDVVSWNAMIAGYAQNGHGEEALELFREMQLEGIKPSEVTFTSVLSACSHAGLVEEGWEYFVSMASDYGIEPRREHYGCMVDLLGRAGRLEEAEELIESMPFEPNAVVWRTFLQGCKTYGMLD
- experiment_notes: isothermal titration calorimetry; HRP: 50 mM Tris pH 8, 150 mM NaCl, 1 mM beta-mercaptoethanol, 50 ug/ml BSA, 3 ug/ml yeast RNA, 0.5% heparin; ITC and FP: Tris pH 8, 200 mM KCl, 5% glycerol; MST: 50 mM Tris pH 8, 200 mM NaCl, 1 mM DTT, BSA, heparin, 0.05% Tween 20
- measurement_parameters: protein: recombinant; tags: N-terminal TRX-His
outcome_measure: Kd (nM)

>  <binder>
UUACACGUG (ssRNA) [rpoA footprint (ITC)]

>  <val>
48

$$$$
